All figures here come from paper PMC12686966.

# method.description: Pharmacokinetic study of 10 major BYQZF components in plasma (UPLC-MS/MS)
# condition.context: male, C57BL/6J, mouse, in vivo, po, 5 g/kg
measured.parameter: Cmax (ng/mL)

compound.structure | units | numeric.value
N[C@@H](CCC(=O)O)C(=O)O | ng/mL | 0.0514

====

# method.description: Pharmacokinetic study of 10 major BYQZF components in plasma (UPLC-MS/MS)
# condition.context: male, C57BL/6J, mouse, plasma, po, 5 g/kg, MRT(0-t), plasma, oral BYQZF 5 g crude drug/kg, group MPTP+BYQZF (PD model mice), n=6

molecule | units | MRT last
N[C@@H](CCC(=O)O)C(=O)O | h | 4.55
O[C@H]1[C@H](O)[C@@H](O)[C@H](O)[C@@H](O)[C@H]1O | h | 11.2
C[C@@H]1O[C@@H](O[C@@H]2[C@@H](O)[C@H](OCCc3ccc(O)c(O)c3)O[C@H](COC(=O)/C=C/c3ccc(O)c(O)c3)[C@H]2O)[C@H](O)[C@H](O)[C@H]1O [Isoacteoside] | h | 8.87
O=c1c(O)c(-c2ccccc2)oc2ccccc12 [3-Hydroxyflavone] | h | 13
O=c1cc[nH]c(=O)[nH]1 | h | 2.89
